Here we list molecules with their recorded MIC when tested on Aureobasidium pullulans.
One number for each entry, in µg/mL.

For each of the molecules below, state MIC.
1. CC(C1CC1)C(O)(Cn1cncn1)c1ccc(Cl)cc1 (centres unmarked)
2. CC1COC(Cn2cncn2)(c2ccc(Oc3ccc(Cl)cc3)cc2Cl)O1 (centres unmarked)
3. c1ccc2[nH]c(-c3cscn3)nc2c1
4. CCCC1COC(Cn2cncn2)(c2ccc(Cl)cc2Cl)O1 (centres unmarked)

12.5
12.5
50
50

These data points were gathered from patent US20090221619A1.
